The reported measurements were obtained from PubChem BioAssay (NCI).

- Tested on: MDA-MB-435 melanoma
- PROTOCOL NOTES: NCI-60 one-dose screen, 48 h
- EXPERIMENTAL CONTEXT: 10 µM
About 83,000 compounds went through this panel and 20% of them were active in at least one assay; those are over-represented in the sample as a whole. The source made the active and inactive calls. Rule for the calls: active = growth percent below 10; inactive = the rest.
Write down one outcome, taken from True = active, False = inactive

Example results:
[
  {
    "MOLECULE": "CC(=O)Nc1ccc(Sc2ccc(NC(C)=O)cc2)cc1",
    "LABEL VALUE": "False"
  },
  {
    "MOLECULE": "COc1ccc(-c2cc(/C=C3\\C(=O)Nc4cc(Cl)ccc43)[nH]n2)cc1OC",
    "LABEL VALUE": "True"
  },
  {
    "MOLECULE": "Oc1ccc(Cn2cc3c(c2-c2ccccc2)CCc2cnoc2-3)cc1",
    "LABEL VALUE": "False"
  },
  {
    "MOLECULE": "N/C(=N\\O)c1cn(C2OC(CO)C(O)C2O)c2ncnc(N)c12 (stereo not drawn)",
    "LABEL VALUE": "True"
  },
  {
    "MOLECULE": "Cc1ccc2c(c1)-c1cc(C)nn1-c1ccc(C#N)cc1O2",
    "LABEL VALUE": "True"
  },
  {
    "MOLECULE": "Cc1noc(C)c1-c1ccc2nc(NC(=O)[C@H]3CCN(C#N)C3)cn2c1",
    "LABEL VALUE": "False"
  },
  {
    "MOLECULE": "COc1ccc(-c2nnc(N3CCN(C(=O)CN4CCN(c5ccc(Cl)cc5)CC4)CC3)nc2-c2ccc(OC)cc2)cc1",
    "LABEL VALUE": "False"
  },
  {
    "MOLECULE": "O=c1oc2c3ccc4cnccc4c3[nH]c2c2ccccc12",
    "LABEL VALUE": "True"
  }
]

What did the test return for `CCN1CCN(c2nc(NNC(=O)c3cccc(OC)c3)nc(N3CCN(C(c4ccccc4)c4ccccc4)CC3)n2)CC1` ? False

What did the test return for `CCOC(=O)c1ccc(NC(=O)Nc2nncs2)cc1` ? True

What did the test return for `COc1cc2nc(Sc3sc(N)nc3C)n(-c3ccc(Oc4ccccc4)cc3)c(=O)c2cc1OC` ? False

====

growth values, listed per item
- Test system: SR leukemia
- PROTOCOL NOTES: NCI-60 one-dose screen, 48 h (100 = growth as untreated, 0 = no growth, -100 = all killed)
- EXPERIMENTAL CONTEXT: 10 µM
About 83,000 compounds went through this panel and 20% of them were active in at least one assay; those are over-represented in the sample as a whole.
Give the value in % but do not write % after it.

[
  {
    "COMPOUND": "COc1ccc(C2CC(c3ccc(-c4ccccc4)cc3)=NN2c2ccc(S(N)(=O)=O)cc2)cc1 (configuration not stated)",
    "growth, %": 80
  },
  {
    "COMPOUND": "CCC(OC(=O)CC(C)C)c1ccccc1 (configuration not stated)",
    "growth, %": 101
  },
  {
    "COMPOUND": "c1ccc(COCC[P+](c2ccccc2)(c2ccccc2)c2ccccc2)cc1",
    "growth, %": -15.6
  }
]

Given `CCOC(=O)c1c(O)c2cc(-c3ccccc3)nc(OCC)c2c(=O)n1C` , state its recorded growth. 98

Given `CCOC(=O)[C@@H](Cc1ccccc1)NC(=O)c1[nH]c2ccc(Cl)cc2c(=O)c1C` , state its recorded growth. 61.3

Given `Cc1ncc([N+](=O)[O-])n1CCOc1ccc(C(=O)/C=C/c2ccc(C(F)(F)F)cc2)cc1` , state its recorded growth. -13.2

Given COc1cccc(C2(C)Nc3ccccc3-c3nc4ccccc4n32)c1 (configuration not stated) , state its recorded growth. 87.7

Given `O=C1NN(c2ccccc2)C(c2cccnc2)=N/C1=C\c1cccnc1` , state its recorded growth. 73.6

Given `CCc1nn2c(-c3cc(OC)c(OC)c(OC)c3)c(-c3cc(OC)c(OC)c(OC)c3)nc2s1` , state its recorded growth. 61.9

Given `COc1ccc(/C(CS(=O)(=O)c2ccccc2)=N\O)cc1` , state its recorded growth. 87

Given `COc1cccc(-c2nnc(COc3ccc(-c4nc5ccc(C)cc5[nH]4)cc3OC)o2)c1` , state its recorded growth. -25.7

Given `CC(C)OP(=O)(O)c1ncc(-c2ccc(C(F)(F)F)cc2)c(NC2CCCCCC2)n1` , state its recorded growth. 86.3

Given `O=C(Nc1cccc(C(F)(F)F)c1)C(Cl)Cl` , state its recorded growth. 94.3
